Cited source for all entries: patent US20240270741A1

study_system: FGFR2 (Homo sapiens, UniProt P21802)
Sequence (P21802 399-821 limits assumed): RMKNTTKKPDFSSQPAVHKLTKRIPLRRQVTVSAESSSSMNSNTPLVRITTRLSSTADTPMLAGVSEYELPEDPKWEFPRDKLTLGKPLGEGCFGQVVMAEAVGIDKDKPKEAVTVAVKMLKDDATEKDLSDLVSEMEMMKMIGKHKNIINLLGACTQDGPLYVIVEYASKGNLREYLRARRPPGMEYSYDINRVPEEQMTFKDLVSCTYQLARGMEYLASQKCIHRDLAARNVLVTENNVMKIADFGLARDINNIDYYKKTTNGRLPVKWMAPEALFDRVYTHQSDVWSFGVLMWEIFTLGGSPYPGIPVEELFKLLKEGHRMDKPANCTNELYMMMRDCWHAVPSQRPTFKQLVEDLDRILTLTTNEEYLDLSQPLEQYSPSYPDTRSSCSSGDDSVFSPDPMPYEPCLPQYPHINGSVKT
method_description: FGFR wild type enzyme assay (HTRF KinEASE-TK), FGFR2
condition_details: Enz FGFR2 (nM), FGFR2 wild type enzyme assay
measured_quantity: IC50 (nM)
# output: bare number, implied unit nM

smiles_code	observed_measurement
N#Cc1ccccc1Sc1cc(-c2cnn(CCO)c2)cn2ncc(C#N)c12	2
CN1CCN(c2ccc(-c3cc(Sc4ncccc4F)c4c(C#N)cnn4c3)cn2)CC1=O	2
C[C@H](O)C(=O)N1CCC[C@@H](n2cc(-c3cc(Sc4ccccc4C#N)c4c(C#N)cnn4c3)cn2)C1	1
N#Cc1ccccc1Sc1cc(-c2cnn(CCC(=O)N3CC[C@H](O)C3)c2)cn2ncc(C#N)c12	1

Looking up COCC(=O)N1CCC(n2cc(-c3cc(Sc4ccccc4C#N)c4c(C#N)cnn4c3)cn2)CC1 , I see its IC50 listed as 0.3

Looking up CN[C@]1(C)CC[C@@H](n2ncc(-c3cc(Sc4ccc(F)cc4C#N)c4c(C#N)cnn4c3)c2C)CC1 , I see its IC50 listed as 0.6

Looking up CN1CCN(c2ccc(-c3cc(Sc4ccc(F)cc4C#N)c4c(C#N)cnn4c3)cn2)CC1=O , I see its IC50 listed as 2

Looking up Cc1cccc(Sc2cc(-c3cnn(C4CCN(C)CC4)c3C)cn3ncc(C#N)c23)c1C#N , I see its IC50 listed as 2
